# Test system: MSH2-proficient HEC59 cells with chromosome 2 transfer (HEC59 chr.2)
# assay.explanation: Cell viability (MTS) assay, MSH2-proficient cells
# Format: cell-based, human
# run.conditions: 24 h exposure, MTS; read-out: IC50 MSH2-proficient
metric: pIC50
Answers are plain numbers, as −log10 of the molar value.

# pIC50 (compound: N.N.[Cl][Pt][Cl] [cisplatin] ) is 4.33

====

Hi there, I'd appreciate the recorded pIC50 for every entry that follows.
# Test system: MSH2-proficient HEC59 cells with chromosome 2 transfer (HEC59 chr.2)
# assay.explanation: Cell viability (MTS) assay, MSH2-proficient cells
# Format: cell-based, human
# run.conditions: Homo sapiens; 24 h exposure, MTS; read-out: IC50 MSH2-proficient
One number for each entry, as −log10 of the molar value.

Consider the worked cases shown below.
[[record]]
smiles = "COC(=O)[C@H]1[C@H]2C[C@@H]3c4[nH]c5cc(OC)ccc5c4CCN3C[C@H]2C[C@@H](OC(=O)c2ccc(OC)cc2)[C@@H]1OC"
test_system = "MSH2-proficient HEC59 cells with chromosome 2 transfer (HEC59 chr.2)"
metric = "pIC50"
value = 4.17

[[record]]
smiles = "COC(=O)[C@H]1[C@H]2C[C@@H]3c4[nH]c5cc(OC)ccc5c4CCN3C[C@H]2C[C@@H](OC(=O)c2cc(OC)cc(OC)c2)[C@@H]1OC"
test_system = "MSH2-proficient HEC59 cells with chromosome 2 transfer (HEC59 chr.2)"
metric = "pIC50"
value = 4.42

[[record]]
smiles = "COC(=O)[C@H]1[C@H]2C[C@@H]3c4[nH]c5cc(OC)ccc5c4CCN3C[C@H]2C[C@@H](OC(=O)c2cc(OC)c(OC)c(OC)c2)[C@@H]1OC"
test_system = "MSH2-proficient HEC59 cells with chromosome 2 transfer (HEC59 chr.2)"
metric = "pIC50"
value = 4.21

[[record]]
smiles = "COC(=O)[C@H]1[C@H]2C[C@@H]3c4[nH]c5cc(OC)ccc5c4CCN3C[C@H]2C[C@@H](OC(=O)/C=C/c2ccccc2)[C@@H]1OC"
test_system = "MSH2-proficient HEC59 cells with chromosome 2 transfer (HEC59 chr.2)"
metric = "pIC50"
value = 3.89

[[record]]
smiles = "COC(=O)[C@H]1[C@H]2C[C@@H]3c4[nH]c5cc(OC)ccc5c4CCN3C[C@H]2C[C@@H](OC(=O)c2ccc(OC)c(OC)c2)[C@@H]1OC"
test_system = "MSH2-proficient HEC59 cells with chromosome 2 transfer (HEC59 chr.2)"
metric = "pIC50"
value = 4.18


Provide each entry's pIC50 from the list below.
1. COC(=O)[C@H]1[C@H]2C[C@@H]3c4[nH]c5ccccc5c4CCN3C[C@H]2C[C@@H](OC(=O)c2cc(OC)c(OC)c(OC)c2)[C@@H]1OC
2. COC(=O)[C@H]1[C@H]2C[C@@H]3c4[nH]c5cc(OC)ccc5c4CCN3C[C@H]2C[C@@H](OC(=O)c2cccc(OC)c2)[C@@H]1OC

1. 4.32
2. 4.06

====

# System: MSH2-deficient HEC59 cells
# assay.explanation: Cell viability (MTS) assay, MSH2-deficient cells
# Assay type: cell-based, human
# run.conditions: IC50 MSH2-deficient vs MSH2-proficient cells, 24 h
Hi there, I'd appreciate the recorded Fold difference for every entry that follows.
Numbers only.

Consider the worked cases shown below.
[[record]]
smiles = "COC(=O)[C@H]1[C@H]2C[C@@H]3c4[nH]c5cc(OC)ccc5c4CCN3C[C@H]2C[C@@H](OC(=O)c2ccc(OC)c(OC)c2)[C@@H]1OC"
test_system = "MSH2-deficient HEC59 cells"
metric = "Fold difference"
value = 1.3

[[record]]
smiles = "COC(=O)[C@H]1[C@H]2C[C@@H]3c4[nH]c5cc(OC)ccc5c4CCN3C[C@H]2C[C@@H](OC(=O)c2cc(OC)c(OC)c(OC)c2)[C@@H]1OC"
test_system = "MSH2-deficient HEC59 cells"
metric = "Fold difference"
value = 1.5


# Fold difference (compound: COC(=O)[C@H]1[C@H]2C[C@@H]3c4[nH]c5cc(OC)ccc5c4CCN3C[C@H]2C[C@@H](OC(=O)c2ccc3c(c2)OCO3)[C@@H]1OC ) is 0.71

# credit: patent US8486957B2
